System: THP-1;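 note: growth inhibition of THP-1 cells, read out via a cell viability assay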
experiment.notes: cells
Format: functional, cell-based, Homo sapiens
condition: thp-1
Description: SANGER: Inhibition of human THP-1 cell growth in a cell viability assay.
Where a SMILES comes first, the peptide text is derived from it. The star is where a group is joined. Cbz = O=C(OCc1ccccc1)*
measure: IC50

Could you share which IC50 value was measured for CC(C)C[C@@H](C=O)NC(=O)[C@H](CC(C)C)NC(=O)[C@H](CC(C)C)NC(=O)OCc1ccccc1 [MG-132] (Cbz-Leu-Leu-Leu-aldehyde) ?
> 1000 nM

====

Test system: NKM-1;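 note: growth inhibition of NKM-1 cells, read out with a cell viability assay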
experiment.notes: cells
Type: functional, cell-based, Homo sapiens
condition: Homo sapiens, NKM-1
Description: SANGER: Inhibition of human NKM-1 cell growth in a cell viability assay.
pIC50: −log10 of the molar value.
measure: pIC50

// lookup pIC50 for `COc1ccc(-c2cc3nccn3c(Nc3ncccc3C(N)=O)n2)cc1OC`
5.98

// returns reported pIC50 for input `CCCCCCCCCCCC1=C(O)C(=O)C=C(O)C1=O`
< 4.49

Recorded pIC50 of `OC[C@H](Cc1ccccc1)Nc1nc(Oc2ccc3c(c2)CCC3)nc2c1ncn2Cc1ccc(-c2ccccc2)cc1` , please.
< 4.99

Item `Cc1cc(N2CCOCC2)cc2[nH]c(-c3c(NC[C@@H](O)c4cccc(Cl)c4)cc[nH]c3=O)nc12` has what recorded pIC50?
< 5.29

So what does the record say about pIC50 for `NC(=O)Nc1cc(-c2cccc(F)c2)sc1C(=O)N[C@H]1CCCNC1` ?
> 8.11

So what's the measured pIC50 for this one? `C[C@@H](Oc1cc(-c2cnn(C3CCNCC3)c2)cnc1N)c1c(Cl)ccc(F)c1Cl`
< 5.70

What does the record list as pIC50 for `Cc1ccc(C(=O)Nc2ccc(CN3CCN(C)CC3)c(C(F)(F)F)c2)cc1C#Cc1cnc2cccnn12` ?
8.18

====

Tested on: MKN-1;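 note: growth inhibition of human MKN1 cells, read out by a cell viability measurement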
experiment.notes: cells
Type: functional, cell-based
condition: Homo sapiens
Description: SANGER: Inhibition of human MKN1 cell growth in a cell viability assay.
measure: pIC50
The value called pIC50 is obtained by taking minus log10 of the concentration in mol/L.

Item C/C(=C\c1csc(C)n1)[C@@H]1C[C@@H]2O[C@]2(C)CCC[C@H](C)[C@H](O)[C@@H](C)C(=O)C(C)(C)[C@@H](O)CC(=O)O1 [PATUPILONE] has what recorded pIC50?
8.58

# pIC50 lookup, item CCCCCCCCCCCC1=C(O)C(=O)C=C(O)C1=O [EMBELIN]
4.91

====

Task for the reader: assign each of the following compounds its reported IC50.
Tested on: NCI-H2196;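 note: cell viability assay used as the readout of growth inhibition in NCI-H2196 cells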
experiment.notes: cells
Format: functional, cell-based, Homo sapiens
condition: Homo sapiens, NCI-H2196; read-out: IC50
Description: SANGER: Inhibition of human NCI-H2196 cell growth in a cell viability assay.

Return reported IC50; argument: CC(C)C[C@H](NC(=O)[C@H](Cc1ccccc1)NC(=O)c1cnccn1)B(O)O [BORTEZOMIB]
0.0068 µM

Using the record for C=CC(=O)N1CCCC(Nc2nc(Nc3ccc(N(C)C(=O)CC)cc3)nc3[nH]cnc23)C1 (stereo not drawn) , report its IC50.
> 10.2 µM

Suppose we examine the compound `OC[C@H](Cc1ccccc1)Nc1nc(Oc2ccc3c(c2)CCC3)nc2c1ncn2Cc1ccc(-c2ccccc2)cc1` ; what IC50 value has been reported?
> 10.2 µM

====

Could you please report measured pIC50 for the items listed next?
Tested on: NCI-H889
experiment.notes: cells
Format: functional, cell-based, Homo sapiens
condition: Homo sapiens, NCI-H889
Description: SANGER: Inhibition of human NCI-H889 cell growth in a cell viability assay.
pIC50: −log10 of the molar value.

What pIC50 appears in the records for this compound with NCI-H889? `CCCCCCCCCCCC1=C(O)C(=O)C=C(O)C1=O`
< 4.49

What value of pIC50 on NCI-H889 does `COc1ccc(-c2cc3nccn3c(Nc3ncccc3C(N)=O)n2)cc1OC` have?
< 5.10

Hi! What's the reported pIC50 for `C/C(=C\c1csc(C)n1)[C@@H]1C[C@@H]2O[C@]2(C)CCC[C@H](C)[C@H](O)[C@@H](C)C(=O)C(C)(C)[C@@H](O)CC(=O)O1` on NCI-H889?
< 7.49

Item: `OC[C@H](Cc1ccccc1)Nc1nc(Oc2ccc3c(c2)CCC3)nc2c1ncn2Cc1ccc(-c2ccccc2)cc1` Test system: NCI-H889 Read-out: pIC50 Value: ?
< 4.99

Entry `COc1ccc(N(C(=O)Oc2c(C)cccc2C)c2ccnc(Nc3ccc(N4CCN(C)CC4)cc3)n2)c(OC)c1` , system NCI-H889: what pIC50 was measured?;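 note: cell growth inhibition of the cell line, read out with a viability assay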
< 5.29

Query pIC50 on NCI-H889 for `COc1cc(N2CCC(N3CCN(C)CC3)CC2)ccc1Nc1ncc(Cl)c(Nc2ccccc2S(=O)(=O)C(C)C)n1`
< 5.70

What is its pIC50 for NCI-H889? Entry: `Cc1ccc(NC(=O)c2ccc(CN3CCN(C)CC3)cc2)cc1Nc1nccc(-c2cccnc2)n1`
< 5.70

====

Consider the following compounds; for each one, report its pIC50.
Tested on: D-423MG
experiment.notes: cells
Type: functional, cell-based
condition: Homo sapiens
Description: SANGER: Inhibition of human D-423MG cell growth in a cell viability assay.
Here pIC50 is given on a logarithmic scale as minus log10 of the concentration in mol/L.

Value lookup for pIC50; key = `NC(=O)Nc1cc(-c2cccc(F)c2)sc1C(=O)N[C@H]1CCCNC1`
6.48

Reported pIC50 for `CN(NC(=O)CC(=O)NN(C)C(=S)c1ccccc1)C(=S)c1ccccc1` : what is it?
7.92

Requested field: pIC50. Item: `CS(=O)(=O)N1CCN(Cc2cc3nc(-c4cccc5[nH]ncc45)nc(N4CCOCC4)c3s2)CC1`
5.96

====

Tested on: IST-MEL1
experiment.notes: cells
Format: functional, cell-based, Homo sapiens
condition: Homo sapiens, IST-MEL1
Description: SANGER: Inhibition of human IST-MEL1 cell growth in a cell viability assay.
For each record, write down the corresponding IC50.

IC50 lookup needed for `CC1=C(/C=C/C(C)=C/C=C/C(C)=C/C(=O)O)C(C)(C)CCC1` , thanks.
> 10000 nM

Which value of IC50 has been reported for `CN(C)CCOc1ccc(-c2nc(-c3ccncc3)c(-c3ccc4c(c3)CC/C4=N\O)[nH]2)cc1` in the records?
> 5000 nM

Entry `Cc1ccc(NC(=O)c2ccc(CN3CCN(C)CC3)cc2)cc1Nc1nccc(-c2cccnc2)n1` : reported IC50 = ?
> 2000 nM

Dear colleague, I am looking for the recorded IC50 of the following compound: C=CC(=O)N1CCCC(Nc2nc(Nc3ccc(N(C)C(=O)CC)cc3)nc3[nH]cnc23)C1 (stereo not drawn)
> 10200 nM

Recorded IC50 for `C/C(=C\c1csc(C)n1)[C@@H]1C[C@@H]2O[C@]2(C)CCC[C@H](C)[C@H](O)[C@@H](C)C(=O)C(C)(C)[C@@H](O)CC(=O)O1` , please?
4.06 nM

Give its IC50 value. Item: `O=C1NC(=O)c2c1c(-c1ccccc1Cl)cc1[nH]c3ccc(O)cc3c21`
> 2000 nM

Endpoint output: IC50 of `CN(NC(=O)CC(=O)NN(C)C(=S)c1ccccc1)C(=S)c1ccccc1` . Value?
11.3 nM

Sample `CC1(C)CCC(c2ccc(Cl)cc2)=C(CN2CCN(c3ccc(C(=O)NS(=O)(=O)c4ccc(N[C@H](CCN5CCOCC5)CSc5ccccc5)c(S(=O)(=O)C(F)(F)F)c4)cc3)CC2)C1` — what was its IC50?
> 2000 nM

====

Tested on: SNU1;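 note: growth inhibition of human NCI-SNU-1 cells, measured with a cell viability assay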
experiment.notes: cells
Format: functional, cell-based, Homo sapiens
condition: Homo sapiens, SNU1
Description: SANGER: Inhibition of human NCI-SNU-1 cell growth in a cell viability assay.
pIC50: −log10 of the molar value.
Provide the recorded pIC50 for the entries that follow.

Look up pIC50: `COC(=O)[C@H](CCSC)NC(=O)c1ccc(NC[C@@H](N)CS)cc1-c1ccccc1`
< 5.99

Which pIC50 value is on record for `Cc1ccc(C(=O)Nc2ccc(CN3CCN(C)CC3)c(C(F)(F)F)c2)cc1C#Cc1cnc2cccnn12` ?
< 6.29

Look up pIC50: `COc1ccc(-c2cc3nccn3c(Nc3ncccc3C(N)=O)n2)cc1OC`
5.70

Need pIC50 of `Nc1ccccc1NC(=O)c1ccc(CNC(=O)OCc2cccnc2)cc1` , thanks.
< 5.30

I have this compound here, `C/C(=C\c1csc(C)n1)[C@@H]1C[C@@H]2O[C@]2(C)CCC[C@H](C)[C@H](O)[C@@H](C)C(=O)C(C)(C)[C@@H](O)CC(=O)O1` , and I need its recorded pIC50.
< 7.49

Which value of pIC50 has been reported for C=CC(=O)N1CCCC(Nc2nc(Nc3ccc(N(C)C(=O)CC)cc3)nc3[nH]cnc23)C1 (stereo not drawn) in the records?
< 4.99

State the recorded pIC50 for this entry: `OC[C@H](Cc1ccccc1)Nc1nc(Oc2ccc3c(c2)CCC3)nc2c1ncn2Cc1ccc(-c2ccccc2)cc1`
< 4.99

I have this compound here, `CN(C)CCOc1ccc(-c2nc(-c3ccncc3)c(-c3ccc4c(c3)CC/C4=N\O)[nH]2)cc1` , and I need its recorded pIC50.
5.54

====

Tested on: LB373-MEL-D;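 note: growth inhibition of the cell line, read out in a cell viability assay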
experiment.notes: cells
Assay type: functional, cell-based, Homo sapiens
condition: Homo sapiens, LB373-MEL-D
Description: SANGER: Inhibition of human LB373-MEL-D cell growth in a cell viability assay.
pIC50: −log10 of the molar value.
I'd appreciate it if you could supply pIC50 values for the items below.

State the recorded pIC50 for this entry: `NC(=O)c1ccc(N(C(N)=O)c2c(F)cccc2F)nc1-c1ccc(F)cc1F`
< 5.70

Which pIC50 is reported for this compound? `CC(C)C[C@H](NC(=O)[C@H](Cc1ccccc1)NC(=O)c1cnccn1)B(O)O`
9.15

Please report the recorded pIC50 for `O=S(=O)(O)c1ccc2cc(/N=N/c3cc(S(=O)(=O)O)c4cccnc4c3O)ccc2c1` .
< 4.80

Could you share which pIC50 value was measured for `Cc1cc(N2CCOCC2)cc2[nH]c(-c3c(NC[C@@H](O)c4cccc(Cl)c4)cc[nH]c3=O)nc12` ?
< 5.29

Requested field: pIC50. Item: `CC1=C(/C=C/C(C)=C/C=C/C(C)=C/C(=O)O)C(C)(C)CCC1`
< 5.00

Using the record for `C/C(=C\c1csc(C)n1)[C@@H]1C[C@@H]2O[C@]2(C)CCC[C@H](C)[C@H](O)[C@@H](C)C(=O)C(C)(C)[C@@H](O)CC(=O)O1` , report its pIC50.
7.74
